# assay target: BChE (from equine serum) (Equus caballus, UniProt P81908)
# Construct: BChE (from equine serum); purchased Sigma-Aldrich; host or cells: equine serum
# Sequence (P81908 whole entry): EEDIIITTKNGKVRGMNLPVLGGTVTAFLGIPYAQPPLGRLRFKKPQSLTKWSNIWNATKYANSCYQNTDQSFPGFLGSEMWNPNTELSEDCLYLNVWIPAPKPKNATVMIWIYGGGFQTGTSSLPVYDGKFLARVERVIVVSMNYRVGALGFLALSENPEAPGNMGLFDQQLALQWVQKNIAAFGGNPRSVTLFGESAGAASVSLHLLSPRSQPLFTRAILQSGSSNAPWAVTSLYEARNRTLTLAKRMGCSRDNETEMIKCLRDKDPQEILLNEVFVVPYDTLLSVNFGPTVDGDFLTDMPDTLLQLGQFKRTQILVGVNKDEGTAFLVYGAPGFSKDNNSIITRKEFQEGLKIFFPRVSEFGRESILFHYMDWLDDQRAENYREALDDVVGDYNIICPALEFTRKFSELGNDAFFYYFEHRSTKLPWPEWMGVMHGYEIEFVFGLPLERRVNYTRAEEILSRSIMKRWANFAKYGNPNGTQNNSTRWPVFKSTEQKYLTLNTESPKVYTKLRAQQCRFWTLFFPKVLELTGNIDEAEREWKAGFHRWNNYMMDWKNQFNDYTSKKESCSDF
# assay procedure: biochemical
# settings: 15 min preincubation; read-out: IC50 (µM) BChE
measured parameter: IC50

Item CCC(C)C(=O)O[C@@H]1c2c(ccc3ccc(=O)oc23)OC(C)(C)[C@@H]1OC(=O)C=C(C)C (stereo partly shown) was tested on BChE (from equine serum) (Equus caballus, UniProt P81908); the reported IC50 is 10.2 µM

Item C/C=C(/C)C(=O)O[C@@H]1[C@H](OC(=O)C(C)CC)c2c(ccc3ccc(=O)oc23)OC1(C)C (stereo partly shown) was tested on BChE (from equine serum) (Equus caballus, UniProt P81908); the reported IC50 is > 40 µM

Item `CC(=O)O[C@@H]1[C@H](OC(=O)C=C(C)C)c2c(ccc3ccc(=O)oc23)OC1(C)C` was tested on BChE (from equine serum) (Equus caballus, UniProt P81908); the reported IC50 is > 40 µM

Item `CC(C)=CC(=O)O[C@@H]1c2c(ccc3ccc(=O)oc23)OC(C)(C)[C@@H]1OC(=O)C=C(C)C` was tested on BChE (from equine serum) (Equus caballus, UniProt P81908); the reported IC50 is 10.7 µM

----------
# assay target: AChE (Type VI-S; from Electrophorus electricus) (Electrophorus electricus, UniProt O42275)
# Construct: AChE (Type VI-S; from Electrophorus electricus); purchased Sigma-Aldrich Type VI-S (catalogue number not given)
# Sequence (O42275 24-633): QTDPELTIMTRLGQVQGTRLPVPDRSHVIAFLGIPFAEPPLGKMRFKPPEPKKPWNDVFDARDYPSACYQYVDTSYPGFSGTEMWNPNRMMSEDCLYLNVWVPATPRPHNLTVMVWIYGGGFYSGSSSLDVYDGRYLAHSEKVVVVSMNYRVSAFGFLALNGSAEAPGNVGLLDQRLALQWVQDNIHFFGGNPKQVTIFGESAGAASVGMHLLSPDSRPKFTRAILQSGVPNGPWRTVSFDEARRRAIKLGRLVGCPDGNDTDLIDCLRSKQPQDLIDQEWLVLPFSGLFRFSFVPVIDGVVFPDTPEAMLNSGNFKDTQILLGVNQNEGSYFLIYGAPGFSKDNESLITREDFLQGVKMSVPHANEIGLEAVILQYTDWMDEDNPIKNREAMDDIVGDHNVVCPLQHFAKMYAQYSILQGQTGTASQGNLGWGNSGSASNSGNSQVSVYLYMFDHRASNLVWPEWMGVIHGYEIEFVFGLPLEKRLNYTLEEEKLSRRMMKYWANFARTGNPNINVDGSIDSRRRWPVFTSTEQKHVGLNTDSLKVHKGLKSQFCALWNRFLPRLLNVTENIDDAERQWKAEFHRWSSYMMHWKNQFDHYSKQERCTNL
# assay procedure: biochemical
# settings: selectivity index
measured parameter: SI = IC50 of AChE/ IC50 of BChE

Illustrative cases are given below, each with its answer.
{"compound": "CCC(C)C(=O)O[C@@H]1c2c(ccc3ccc(=O)oc23)OC(C)(C)[C@@H]1OC(=O)CC(C)C (stereo partly shown) [PJ15]", "assay target": "AChE (Type VI-S; from Electrophorus electricus) (Electrophorus electricus, UniProt O42275)", "SI = IC50 of AChE/ IC50 of BChE": "< 0.25"}
{"compound": "CCC(C)C(=O)O[C@@H]1c2c(ccc3ccc(=O)oc23)OC(C)(C)[C@@H]1OC(=O)C=C(C)C (stereo partly shown) [PJ10]", "assay target": "AChE (Type VI-S; from Electrophorus electricus) (Electrophorus electricus, UniProt O42275)", "SI = IC50 of AChE/ IC50 of BChE": "> 3.92"}
{"compound": "CC(C)=CC(=O)O[C@@H]1c2c(ccc3ccc(=O)oc23)OC(C)(C)[C@@H]1OC(=O)C=C(C)C [PJ4, 3′,4′-disenecioylkhellactone]", "assay target": "AChE (Type VI-S; from Electrophorus electricus) (Electrophorus electricus, UniProt O42275)", "SI = IC50 of AChE/ IC50 of BChE": 1.99}

Continue with the next compound.
Reported SI = IC50 of AChE/ IC50 of BChE for C/C=C(/C)C(=O)O[C@@H]1c2c(ccc3ccc(=O)oc23)OC(C)(C)[C@@H]1OC(=O)C(C)CC (stereo partly shown) [PJ12] was < 0.73

----------
# assay target: AChE (Type VI-S; from Electrophorus electricus) (Electrophorus electricus)
# Construct: AChE (Type VI-S; from Electrophorus electricus); purchased Sigma-Aldrich Type VI-S (catalogue number not given)
# assay procedure: biochemical
# settings: selectivity index
Catalogue of SI = IC50 of AChE/ IC50 of BChE readings, one per entry.

Reported SI = IC50 of AChE/ IC50 of BChE for `CC(C)=CC(=O)O[C@@H]1[C@H](OC(=O)CC(C)C)c2c(ccc3ccc(=O)oc23)OC1(C)C` was < 0.79

Reported SI = IC50 of AChE/ IC50 of BChE for `C/C=C(/C)C(=O)O[C@@H]1c2c(ccc3ccc(=O)oc23)OC(C)(C)[C@@H]1OC(=O)/C(C)=C\C` was < 0.45

Reported SI = IC50 of AChE/ IC50 of BChE for `C/C=C(/C)C(=O)O[C@@H]1[C@H](OC(=O)C=C(C)C)c2c(ccc3ccc(=O)oc23)OC1(C)C` was < 0.64

The measured values listed here are drawn from paper PMC7730441.
